Experiment: Cytotoxicity against mouse NCTC-929 cells assessed as decrease in cell viability after 48 hrs by MTT assay
Type: toxicity
CC50 at 48 h values by entry
Give the value, in units of µM, as a plain number.

These recorded examples may help you get a feel for the data.
smiles_input=F[B-](F)(F)F.c1ccc([C@@H]2C[C@@H]3CC[C@@H]4C[C@H](c5ccccc5)NC(=[NH+]2)N43)cc1 unit_descriptor=µM endpoint_result=45
smiles_input=CC(C)=CCC/C(C)=C/CNC(=N)N.Cl unit_descriptor=µM endpoint_result=116
smiles_input=C[C@@H]1C[C@@H]2CC[C@@H]3C[C@H](CCCCOCc4ccccc4)NC(=[NH+]1)N32.F[B-](F)(F)F unit_descriptor=µM endpoint_result=138

Q) # CC50 at 48 h lookup, item `CCCCCCCCCC(=O)OCCCC[C@H]1C[C@H]2CC[C@H]3C[C@@H](C)[NH+]=C(N1)N23.F[B-](F)(F)F`
A) 84

* * *

Assay: Cytotoxicity against mouse NCTC-929 cells assessed as decrease in cell viability after 48 hrs by MTT assay
Assay type: toxicity
MEASUREMENT_NAME: CC50 at 48 h

smiles_input=CCCCCC(=O)OCCCC[C@H]1C[C@H]2CC[C@H]3C[C@@H](C)[NH+]=C(N1)N23.F[B-](F)(F)F measurement_name="CC50 at 48 h" endpoint_result="> 150 µM"
smiles_input=CCCC(=O)OCCCC[C@H]1C[C@H]2CC[C@H]3C[C@@H](C)[NH+]=C(N1)N23.F[B-](F)(F)F measurement_name="CC50 at 48 h" endpoint_result="> 150 µM"

Q) CC50 at 48 h for `C[C@H](O)CCCCC[C@@H]1C[C@H]2CC[C@H]3C[C@@H](C)NC(=[NH+]1)N23.F[B-](F)(F)F` ?
A) > 150 µM

* * *

Test: Selectivity index, ratio of CC50 for mouse NCTC-929 cells to IC50 for Trypanosoma cruzi Y trypomastigote form infected in monkey LLC-MK2 cells
Assay type: functional
# Ratio CC50/IC50 annotations

// known answers, use as guide
smiles_input=CCCCCCCCCc1cc(CCCO)nc(N)n1 endpoint_result=5
smiles_input=F[B-](F)(F)F.c1ccc([C@@H]2C[C@@H]3CC[C@@H]4C[C@H](c5ccccc5)NC(=[NH+]2)N43)cc1 endpoint_result=5
smiles_input=CC(=O)OCCCC[C@H]1C[C@H]2CC[C@H]3C[C@@H](C)[NH+]=C(N1)N23.F[B-](F)(F)F endpoint_result=>2

Alright, here's another compound for you.
Q) Form field: reported Ratio CC50/IC50 of `CCCC(=O)OCCCC[C@H]1C[C@H]2CC[C@H]3C[C@@H](C)[NH+]=C(N1)N23.F[B-](F)(F)F`
A) >2

FYI, the data here is from ChEMBL document CHEMBL3868592.
